Test: chemical genetic growth profiling, strain panel (AID 1159580);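 also: tested at 20 µM; growth read once vehicle control cultures reached saturation at 30 °C; 1 = growth at the plate median or of vehicle wells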
Conditions: S. cerevisiae deletion strains, growth OD, locus YJR043C, strain POL32
The campaign covered roughly 5,500 compounds. About 2,000 (36%) were called active. About 18% were inconclusive and are not listed. Rule as the data show it: active = normalized growth mostly below about 0.91 (no sharp cut-off); inconclusive = no clear call, values can overlap the other calls; inactive = mostly above about 0.92. The list shows a part of the results.
Labels: active, inactive

> print(dat)
                                    compound  category.label
 1  O=C(O)C1CC([C@@H]2CCCCN2)CN2CCCCC12 (stereo partly drawn)        inactive
 2  COc1ccc2c(c1)C1(C)CCC(=O)CC1CC2 (stereo not drawn)        inactive
 3  CCC1(c2ccc(N)cc2)CCC(=O)NC1=O (stereo not drawn)        inactive
 4       Cc1ccc2c(c1)CC[C@H]1CC(=O)CC[C@]21C        inactive
 5           NC(=O)N1c2ccccc2CC(=O)c2ccccc21        inactive
 6      FC(F)(F)c1ccnc(-n2ccc(-c3cccs3)n2)n1        inactive
 7                 CCCC(C)(SCC(=O)O)SCC(=O)O        inactive
 8  COc1ccc(C[C@H]2NC[C@H](O)[C@H]2OC(C)=O)cc1          active
 9  COc1ccc2c(c1)OC[C@@H](Cc1ccc(OC)c(OC)c1)[C@H]2O        inactive
10                       C=CCc1ccc2c(c1)OCO2        inactive
11  OCC(O)Cc1ccc2c(c1)OCO2 (stereo not drawn)        inactive
12             COC(=O)c1c(C)[nH]c(C)c1C(C)=O        inactive
13                          O=c1ccc2ccccc2o1        inactive

----------
Test: chemical genetic growth profiling, strain panel (AID 1159580)
Details: S. cerevisiae deletion strains, growth OD, locus YER015W, strain faa2, stronger effect = lower value
Out of some 5,500 compounds screened, about 2,000 (36%) were called active. Inconclusive results (about 18%) are left out. The list shows a part of the results.
Readout kind: normalized growth

> print(dat)
                                    compound       readout.kind  measured.value
 1             COc1ccc(C(=O)c2ccccc2O)c(O)c1  normalized growth           0.876
 2  Cc1cc(C(C)(C)CC(C)(C)C)ccc1OCCOCC[N+](C)(C)Cc1ccccc1  normalized growth          0.0619
 3  CC(=O)O[C@@](C)(CCC=C(C)C)C1CC=C(C)CC1 (stereo partly specified)  normalized growth           0.994
 4          CCCCCCCCCCCCC[N+](C)(C)Cc1ccccc1  normalized growth          0.0622
 5  COC1C(O)C(O)C(O)[C@@H](O)C1O (stereo partly specified)  normalized growth           0.984
 6     O=C(/C=C/C=C/c1ccc2c(c1)OCO2)N1CCCCC1  normalized growth           0.922
 7  CC1(C)S[C@@H]2[C@H](NC(=O)[C@H](NC(=O)N3CCNC3=O)c3ccccc3)C(=O)N2C1C(=O)O (stereo partly specified)  normalized growth           0.971
 8      COc1cccc([C@]2(O)CCCC[C@H]2CN(C)C)c1  normalized growth           0.973
 9        COc1cc(O)c2c(=O)cc(C)oc2c1CC=C(C)C  normalized growth           0.977
10                  CC(C)N(C(=O)CCl)c1ccccc1  normalized growth           0.997
11  OCCN(CCO)c1nc(N2CCCCC2)c2nc(N(CCO)CCO)nc(N3CCCCC3)c2n1  normalized growth           0.978

----------
Test: chemical genetic growth profiling, strain panel (AID 1159580);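 also: tested at 20 µM; growth read once vehicle control cultures reached saturation at 30 °C; 1 = growth at the plate median or of vehicle wells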
Conditions: S. cerevisiae deletion strains, growth OD, locus YDL005C, strain med2, stronger effect = lower value
Among all 5,500 compounds or so, about 2,000 (36%) were called active. Inconclusive results (about 18%) are left out. This is one part of the list.
Lab note: compare normalized growth with 1, writing 1 if less and -1 if equal or more.

Compound	Category label
COc1ccc2c(c1)[C@@]1(C)CCC(=O)C[C@H]1CC2	1
Cc1cc(C(C)(C)CC(C)(C)C)ccc1OCCOCC[N+](C)(C)Cc1ccccc1	1
CCN(CC)C(=S)SSC(=S)N(CC)CC	1
CCCCCC(C)N (configuration not stated)	-1
COc1c(O)cc2oc3cc(O)c(CC=C(C)C)c(O)c3c(=O)c2c1CC=C(C)C	-1
CCCCCCCCCCCCC[N+](C)(C)Cc1ccccc1	1
CC(C)N(C(=O)CCl)c1ccccc1	-1
COc1cccc([C@]2(O)CCCC[C@H]2CN(C)C)c1	1
CCCCCCCCCCCCCCCCOP(=O)([O-])OCC[N+](C)(C)C	1
Cc1cc(=O)c2c(O)cc(O)c(C)c2o1	1
C[N+](C)(C)CC(=O)[O-]	1
CCSC(=N)N	-1
CC(=O)O[C@]1(C(C)=O)CCC2C3C=C(C)C4=CC(=O)CCC4(C)C3CCC21C (some centres not stated)	1
CC(=O)CC(=O)CCC(=O)O	-1
COC1C(O)C(O)C(O)[C@@H](O)C1O (some centres not stated)	1
COc1c2c(c(CC=C(C)C)c3oc(=O)c(-c4ccc(O)cc4)c(O)c13)OC(C)(C)C=C2	1
C[C@@H](N)CO	1
CCCCCCCC/C=C/CCCCCCCCOP(=O)([O-])OCC[N+](C)(C)C	1

----------
Experiment: chemical genetic growth profiling, strain panel (AID 1159580);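 also: tested at 20 µM; growth read once vehicle control cultures reached saturation at 30 °C; 1 = growth at the plate median or of vehicle wells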
Settings: S. cerevisiae deletion strains, growth OD, locus YOR061W, strain CKA2, stronger effect = lower value
The campaign covered roughly 5,500 compounds. About 2,000 (36%) were called active. Another 18% or so got no clear call; they are omitted. Some of the results follow.
Readout kind: normalized growth

> print(dat)
                                    molecule    measured.value
 1  Cc1cc(SCc2[nH]nc3oc(=O)cc(C)c23)c(Cl)cc1Cl  0.973 (inactive)
 2  CC(=O)[C@H]1CCC2C3C[C@H](C)C4=CC(=O)CC[C@]4(C)C3[C@@H](O)C[C@@]21C (some centres not stated)  0.982 (inactive)
 3  CC(C(=O)O)c1ccc2c(c1)[nH]c1ccc(Cl)cc12 (configuration not stated)      1 (inactive)
 4  CC(=O)O[C@@](C)(CCC=C(C)C)C1CC=C(C)CC1 (some centres not stated)   1.03 (inactive)
 5  CC(=O)O[C@]1(C(C)=O)CCC2C3C[C@H](C)C4=CC(=O)CC[C@]4(C)C3CC[C@@]21C (some centres not stated)  0.987 (inactive)
 6  CC1(C)C2CC[C@]3(C)C(C(=O)C=C4[C@H]5C[C@@](C)(C(=O)O)CC[C@]5(C)CC[C@]43C)[C@@]2(C)CC[C@@H]1O (some centres not stated)   1.04 (inactive)
 7           O=C(O)c1cc(=O)c2ccc(Cl)cc2[nH]1   1.01 (inactive)
 8  COc1ccc(-c2c(O)c3cc4c(c(CC=C(C)C)c3oc2=O)OC(C)(C)CC4)cc1      1 (inactive)
 9                CN=C(NC#N)NCCSCc1nc[nH]c1C   0.99 (inactive)
10  Cc1c(Cl)cccc1NC(=S)N1CCCN(c2ccc(C(F)(F)F)cc2[N+](=O)[O-])CC1  0.963 (inactive)
11  CC(=C(CCOP(=O)(O)O)SC(=O)c1ccccc1)N(C=O)Cc1cnc(C)nc1N   1.01 (inactive)
12  CC(=O)O[C@]1(C(C)=O)CCC2C3C=C(C)C4=CC(=O)CCC4(C)C3CCC21C (some centres not stated)  0.977 (inactive)
13                          O=c1ccc2ccccc2o1   1.02 (inactive)
14  COc1c2c(c(CC=C(C)C)c3oc(=O)c(-c4ccc(O)cc4)c(O)c13)OC(C)(C)C=C2  0.939 (inactive)
15  CCCCCC(=O)O[C@]1(C(C)=O)CCC2C3CCC4=CC(=O)CC[C@]4(C)C3CC[C@@]21C (some centres not stated)      1 (inactive)
16  COc1cc2c(cc1OC)C(=O)C(CC1CCN(Cc3ccccc3)CC1)C2 (configuration not stated)  0.989 (inactive)
17                             Cn1cc[nH]c1=S      1 (inactive)

----------
Assay: chemical genetic growth profiling, strain panel (AID 1159580);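 also: tested at 20 µM; growth read once vehicle control cultures reached saturation at 30 °C; 1 = growth at the plate median or of vehicle wells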
Conditions: S. cerevisiae deletion strains, growth OD, locus YAL030W, strain snc1, stronger effect = lower value
The whole screen tested about 5,500 compounds, of which about 2,000 (36%) were called active. Roughly 18% stayed inconclusive and do not appear here. This is one part of the list.
Readout kind: normalized growth

> print(dat)
                                    compound       readout.kind  measured.value
 1  COC(=O)[C@@H]1C(O)CC[C@H]2CN3CCc4c([nH]c5ccccc45)[C@@H]3C[C@@H]21 (some centres undefined)  normalized growth            1.01
 2  CCCCCCCC/C=C/CCCCCCCCOP(=O)([O-])OCC[N+](C)(C)C  normalized growth           0.053
 3  CNc1ccccc1C(=O)N1CCc2c([nH]c3ccccc23)C1=O  normalized growth           0.995
 4  OCC(O)Cc1ccc2c(c1)OCO2 (centres undefined)  normalized growth               1
 5  O=[N+]([O-])O[C@H]1CO[C@H]2[C@@H]1OC[C@H]2O[N+](=O)[O-]  normalized growth               1
 6                  O=C(O)c1ccccc1OP(=O)(O)O  normalized growth               1
 7                            C1CCc2nnnn2CC1  normalized growth               1
 8                  CC(C)N(C(=O)CCl)c1ccccc1  normalized growth            1.02
 9                  NC(N)=NOCC[C@H](N)C(=O)O  normalized growth               1
10  C=C1CC[C@H](O)C/C1=C/C=C1\CCC[C@]2(C)C([C@H](C)/C=C/[C@H](C)C(C)C)CC[C@@H]12 (some centres undefined)  normalized growth            1.02
11  C=CC1=C(C(=O)O)N2C(=O)[C@@H](NC(=O)/C(=N/O)c3csc(N)n3)[C@H]2SC1  normalized growth            1.01
12             CCc1nc(N)nc(N)c1-c1ccc(Cl)cc1  normalized growth           0.977
13  CC(C)[C@H](N)C(=O)OCCOCn1cnc2c(=O)[nH]c(N)nc21  normalized growth            1.03
14       Cc1ccc2c(c1)CC[C@H]1CC(=O)CC[C@]21C  normalized growth            1.01
15  CC(=O)[C@H]1CCC2C3C[C@H](C)C4=CC(=O)CC[C@]4(C)C3[C@@H](O)C[C@@]21C (some centres undefined)  normalized growth           0.986
16              COc1ccc(C(=O)c2ccccc2)c(O)c1  normalized growth           0.841
17  CNC1(C)C2CCC(C2)C1(C)C (centres undefined)  normalized growth               1
18  CN1CCc2cc3c(cc2C1O)OCO3 (centres undefined)  normalized growth           0.993
19           NC(=O)N1c2ccccc2CC(=O)c2ccccc21  normalized growth           0.993
20               C[CH2][Hg][S]c1ccccc1C(=O)O  normalized growth          0.0549
21  CC(=O)O[C@]1(C(C)=O)CCC2C3C[C@H](C)C4=CC(=O)CC[C@]4(C)C3CC[C@@]21C (some centres undefined)  normalized growth           0.968
22           Cc1c(N(C)C)c(=O)n(-c2ccccc2)n1C  normalized growth           0.982
23   COc1ccc2c(c1)[C@@]1(C)CCC(=O)C[C@H]1CC2  normalized growth           0.959
24             COc1ccc(C(=O)c2ccccc2O)c(O)c1  normalized growth           0.894
